Hello, the source for this data is patent US20240116985A1, in case you need it.

system.name: full-length beta-Catenin (Uniprot ID P35222) (Homo sapiens, UniProt P35222)
Construct: 10 nM full-length beta-Catenin (Uniprot ID P35222)
Sequence (P35222 whole entry): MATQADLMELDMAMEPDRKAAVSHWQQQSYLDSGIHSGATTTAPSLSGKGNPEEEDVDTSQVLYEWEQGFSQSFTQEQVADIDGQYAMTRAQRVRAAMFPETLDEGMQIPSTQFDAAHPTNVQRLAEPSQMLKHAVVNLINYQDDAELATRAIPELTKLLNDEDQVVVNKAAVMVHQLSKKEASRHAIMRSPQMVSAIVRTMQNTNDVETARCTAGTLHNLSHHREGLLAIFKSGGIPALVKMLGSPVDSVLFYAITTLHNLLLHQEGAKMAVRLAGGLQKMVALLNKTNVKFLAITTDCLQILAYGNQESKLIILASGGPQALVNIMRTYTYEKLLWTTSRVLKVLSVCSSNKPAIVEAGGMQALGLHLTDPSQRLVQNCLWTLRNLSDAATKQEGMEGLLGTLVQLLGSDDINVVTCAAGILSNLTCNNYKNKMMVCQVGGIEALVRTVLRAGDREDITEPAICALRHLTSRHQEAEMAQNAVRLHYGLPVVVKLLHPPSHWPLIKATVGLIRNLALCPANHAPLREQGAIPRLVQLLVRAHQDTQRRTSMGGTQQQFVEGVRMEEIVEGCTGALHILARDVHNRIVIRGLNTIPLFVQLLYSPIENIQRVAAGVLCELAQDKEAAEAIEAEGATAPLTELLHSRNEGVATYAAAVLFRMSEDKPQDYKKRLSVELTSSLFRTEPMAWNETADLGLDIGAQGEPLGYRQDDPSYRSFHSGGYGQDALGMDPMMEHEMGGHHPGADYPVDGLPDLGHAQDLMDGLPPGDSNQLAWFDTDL
assay.overview: Fluorescence polarization IC50 (beta-catenin / 5FAM-TCF4 10-53 competition)
Assay type: binding
recorded.conditions: fluorescence polarization; read-out: beta-Catenin FP IC50
outcome.measure: IC50 (nM)

- compound: "CC(=O)N1CCC[C@]12CC=CCCCC1(CCCC=CCCCOC(=O)N3CC[C@@](C(=O)N[C@@H](Cc4ccccc4)C(=O)N[C@@H](Cc4csc5ccccc45)C(=O)N[C@@H](CCO)C(N)=O)(C3)NC(=O)[C@H](CC(N)=O)NC(=O)[C@H](Cc3ccccc3)NC(=O)[C@H](C)NC(=O)[C@H](CCC(N)=O)NC(=O)[C@H](CCC(N)=O)NC(=O)[C@H](CC(=O)O)NC1=O)NC(=O)[C@H](CC1CCCCC1)NC(=O)[C@H](CC(N)=O)NC2=O (some centres unmarked)"
  system.name: "full-length beta-Catenin (Uniprot ID P35222) (Homo sapiens, UniProt P35222)"
  outcome.measure: "IC50"
  observed.result: 180
- compound: "CC(=O)NCCCC[C@@H]1NC(=O)[C@H](Cc2ccccc2)NC(=O)[C@H](C)NC(=O)C(C)(C)NC(=O)[C@H](Cc2cccc(C(=O)O)c2)NC(=O)[C@H](CC(=O)O)NC(=O)C2(CCCC=CCCCOC(=O)N3CC[C@@](C(=O)N[C@@H](Cc4ccccc4C(F)(F)F)C(=O)N[C@@H](Cc4csc5ccccc45)C(=O)N[C@@H](C)C(=O)N[C@@H](C)C(N)=O)(C3)NC1=O)CCCC=CC[C@]1(CCCN1C(C)=O)C(=O)N[C@@H](CC(=O)O)C(=O)N[C@@H](CC(C)(C)C)C(=O)N2 (some centres unmarked)"
  system.name: "full-length beta-Catenin (Uniprot ID P35222) (Homo sapiens, UniProt P35222)"
  outcome.measure: "IC50"
  observed.result: 41

* * *

assay.overview: CHI Log D procedure
Format: physicochemical
recorded.conditions: pH 7.4, LogD

- molecule: "CC[C@H](C)[C@@H]1NC(=O)[C@H](CC(=O)O)NC(=O)[C@]2(CC=CCCCC3(CCCC=CCCCCCC[C@@](C)(C(=O)N[C@@H](Cc4ccccc4)C(=O)N[C@@H](Cc4csc5ccccc45)C(=O)N[C@@H](CCC(N)=O)C(N)=O)NC(=O)[C@H](CCC(N)=O)NC(=O)[C@H](Cc4ccccc4)NC(=O)[C@H](C)NC(=O)[C@H](C)NC(=O)[C@H](CCCC(=O)O)NC(=O)[C@H](CC(=O)O)NC3=O)NC1=O)CCCN2C(C)=O (stereo partly shown) [I-612]"
  chromatographic logD: 2.4

* * *

assay.overview: Solubility in PBS
Format: physicochemical

- compound: "CC(=O)N1CCC[C@]12CC=CCCCC1(CCCC=CCCCOC(=O)N3CC[C@@](C(=O)N[C@@H](Cc4ccsc4)C(=O)N[C@@H](Cc4csc5ccccc45)C(=O)N[C@@H](CCC(N)=O)C(N)=O)(C3)NC(=O)[C@H](CC(N)=O)NC(=O)[C@H](Cc3ccccc3)NC(=O)[C@H](C)NC(=O)[C@H](C)NC(=O)[C@H](Cc3cccc(C(=O)O)c3)NC(=O)[C@H](CC(=O)O)NC1=O)NC(=O)[C@H](CC(C)(C)C)NC(=O)[C@H](CC(=O)O)NC2=O (stereo partly drawn) [I-976]"
  Solubility: "50 µM"
- compound: "CC(=O)N1CCC[C@]12CC=CCCCC1(CCCC=CCCCCCC[C@@](C)(C(=O)N[C@@H](Cc3ccccc3)C(=O)N[C@@H](Cc3csc4ccccc34)C(=O)N[C@@H](CCC(N)=O)C(N)=O)NC(=O)[C@H](CC(N)=O)NC(=O)[C@H](Cc3ccccc3)NC(=O)[C@H](C)NC(=O)[C@H](C)NC(=O)[C@H](CCC(=O)O)NC(=O)[C@H](CC(=O)O)NC1=O)NC(=O)[C@H](CC1CCCCC1)NC(=O)[C@H](CC(=O)O)NC2=O (stereo partly drawn) [I-620]"
  Solubility: "48 µM"
- compound: "CC(=O)N1CCC[C@]12CC=CCCCC1(CCCC=CCCCCCC[C@@](C)(C(=O)N[C@@H](Cc3ccccc3Cl)C(=O)N[C@@H](Cc3csc4ccccc34)C(=O)N[C@@H](CCC(N)=O)C(N)=O)NC(=O)[C@H](CC(C)C)NC(=O)[C@H](Cc3ccccc3)NC(=O)[C@H](C)NC(=O)[C@H](C)NC(=O)[C@H](CCC(=O)O)NC(=O)[C@H](CC(=O)O)NC1=O)NC(=O)[C@H](CC(C)(C)C)NC(=O)[C@H](CC(=O)O)NC2=O (stereo partly drawn)"
  Solubility: "10 µM"
- compound: "CC[C@H](C)[C@@H]1NC(=O)[C@H](CC(=O)O)NC(=O)[C@]2(CC=CCCCC3(CCCC=CCCCCCC[C@@](C)(C(=O)N[C@@H](Cc4ccsc4)C(=O)N[C@@H](Cc4csc5ccccc45)C(=O)N[C@@H](CCC(N)=O)C(N)=O)NC(=O)[C@H](CC(N)=O)NC(=O)[C@H](Cc4ccccc4)NC(=O)[C@H](C)NC(=O)[C@H](C)NC(=O)[C@H](CC(=O)O)NC(=O)[C@H](CC(=O)O)NC3=O)NC1=O)CCCN2C(C)=O (stereo partly drawn)"
  Solubility: "50 µM"
- compound: "CC[C@@H](C)[C@@H]1NC(=O)[C@H](CC(=O)O)NC(=O)[C@]2(CC=CCCCC3(CCCC=CCCCCCC[C@@](C)(C(=O)N[C@@H](Cc4ccccc4)C(=O)N[C@@H](Cc4csc5ccccc45)C(=O)N[C@@H](CCC(N)=O)C(N)=O)NC(=O)[C@H](CC(N)=O)NC(=O)[C@H](Cc4ccccc4)NC(=O)[C@H](C)NC(=O)[C@H](C)NC(=O)[C@H](CCC(=O)O)NC(=O)[C@H](CC(=O)O)NC3=O)NC1=O)CCCN2C(C)=O (stereo partly drawn) [I-475]"
  Solubility: "43 µM"
- compound: "CC(=O)N1CCC[C@]12CC=CCCCC1(CCCC=CCCCCCC[C@@](C)(C(=O)N[C@@H](Cc3ccccc3)C(=O)N[C@@H](Cc3csc4ccccc34)C(=O)N[C@@H](Cc3c[nH]cn3)C(N)=O)NC(=O)[C@H](CC(N)=O)NC(=O)[C@H](Cc3ccccc3)NC(=O)[C@H](C)NC(=O)[C@H](C)NC(=O)[C@H](CCC(=O)O)NC(=O)[C@H](CC(=O)O)NC1=O)NC(=O)[C@H](CC1CCCCC1)NC(=O)[C@H](CC(=O)O)NC2=O (stereo partly drawn)"
  Solubility: "10 µM"
- compound: "CC(=O)N1CCC[C@]12CC=CCCCC1(CCCC=CCCCOC(=O)N3CC[C@@](C(=O)N[C@@H](Cc4ccsc4)C(=O)N[C@@H](Cc4csc5ccccc45)C(=O)N[C@@H](CCC(N)=O)C(N)=O)(C3)NC(=O)[C@H](CC(N)=O)NC(=O)[C@H](Cc3ccccc3)NC(=O)[C@H](C)NC(=O)[C@H](C)NC(=O)[C@H](Cc3ccc(O)cc3)NC(=O)[C@H](CC(=O)O)NC1=O)NC(=O)[C@H](CC(C)(C)C)NC(=O)[C@H](CC(=O)O)NC2=O (stereo partly drawn)"
  Solubility: "10 µM"
- compound: "CC(=O)N1CCC[C@]12CC=CCCCC1(CCCC=CCCCOC(=O)N3CC[C@@](C(=O)N[C@@H](Cc4ccccc4Cl)C(=O)N[C@@H](Cc4csc5ccccc45)C(=O)N[C@@H](CCC(N)=O)C(N)=O)(C3)NC(=O)[C@H](Cc3ccccc3)NC(=O)[C@H](Cc3ccccc3)NC(=O)[C@H](C)NC(=O)[C@H](C)NC(=O)[C@H](Cc3cccc(C(=O)O)c3)NC(=O)[C@H](CC(=O)O)NC1=O)NC(=O)[C@H](CC(C)(C)C)NC(=O)[C@H](CC(=O)O)NC2=O (stereo partly drawn)"
  Solubility: "10 µM"
- compound: "CC(=O)N1CCC[C@]12CC=CCCCC1(CCCC=CCCCOC(=O)N3CC[C@@](C(=O)N[C@@H](Cc4ccccc4Cl)C(=O)N[C@@H](Cc4csc5ccccc45)C(=O)N[C@@H](CO)C(N)=O)(C3)NC(=O)[C@H](Cc3ccccc3)NC(=O)[C@H](Cc3ccccc3)NC(=O)[C@H](C)NC(=O)[C@H](C)NC(=O)[C@H](CN(CC(=O)O)CC(F)(F)F)NC(=O)[C@H](CC(=O)O)NC1=O)NC(=O)[C@H](CC(C)(C)C)NC(=O)[C@H](CC(=O)O)NC2=O (stereo partly drawn)"
  Solubility: "10 µM"

* * *

system.name: beta-catenin/TCF4 engagement (Homo sapiens, UniProt P35222)
Construct: expressed in transfected cells; host or cells: HEK293
Sequence (P35222 whole entry): as above
assay.overview: Nano-BRET target engagement assay (B-cat-Halo & TCF4-Luc in HEK293 cells)
Type: cell-based
recorded.conditions: read-out: NanoBRET Abs IC50
pIC50: −log10 of the molar value.
Label No if pIC50 falls below 5; label Yes in every other case.

- compound: "COCCOCCC(=O)NCCCC[C@H](NC(=O)[C@H](CCC(N)=O)NC(=O)[C@H](Cc1csc2ccccc12)NC(=O)[C@H](Cc1ccsc1)NC(=O)[C@]12CCN(C1)C(=O)OCCCC=CCCCC1(CCCC=CC[C@]3(CCCN3C(C)=O)C(=O)N[C@@H](CC(=O)O)C(=O)N[C@@H](CC(C)(C)C)C(=O)N1)C(=O)N[C@@H](CC(=O)O)C(=O)N[C@@H](CC(=O)O)C(=O)N[C@@H](C)C(=O)N[C@@H](C)C(=O)N[C@@H](Cc1ccccc1)C(=O)N[C@@H](CC(N)=O)C(=O)N2)C(N)=O (stereo partly drawn)"
  discrete.label: "No"
- compound: "CC(=O)N1CCC[C@]12CC=CCCCC1(CCCC=CCCCOC(=O)N3CC[C@@](C(=O)N[C@@H](Cc4ccccc4Cl)C(=O)N[C@@H](Cc4csc5ccccc45)C(=O)N[C@@H](CCS(C)(=O)=O)C(N)=O)(C3)NC(=O)[C@H](CC(C)C)NC(=O)[C@H](Cc3ccccc3)NC(=O)[C@H](C)NC(=O)[C@H](C)NC(=O)[C@H](Cc3cccc(C(=O)O)c3)NC(=O)[C@H](CC(=O)O)NC1=O)NC(=O)[C@H](CC(C)(C)C)NC(=O)[C@H](CC(=O)O)NC2=O (stereo partly drawn)"
  discrete.label: "Yes"
- compound: "CC(=O)N1CCC[C@]12CC=CCCCC1(CCCC=CCCCOC(=O)N3CC[C@@](C(=O)N[C@@H](Cc4ccccc4Cl)C(=O)N[C@@H](Cc4csc5ccccc45)C(=O)N[C@@H](Cc4ccccc4)C(N)=O)(C3)NC(=O)[C@H](CO)NC(=O)[C@H](Cc3ccccc3)NC(=O)[C@H](C)NC(=O)[C@H](C)NC(=O)[C@H](Cc3cccc(C(=O)O)c3)NC(=O)[C@H](CC(=O)O)NC1=O)NC(=O)[C@H](CC(C)(C)C)NC(=O)[C@H](CC(=O)O)NC2=O (stereo partly drawn)"
  discrete.label: "No"
- compound: "CC(=O)N1CCC[C@]12CC=CCCCC1(CCCC=CCCCCOC(=O)N3CC[C@@](C(=O)N[C@@H](Cc4ccsc4)C(=O)N[C@@H](Cc4csc5ccccc45)C(=O)N[C@@H](Cc4c[nH]cn4)C(N)=O)(C3)NC(=O)[C@H](CC(N)=O)NC(=O)[C@H](Cc3ccccc3)NC(=O)[C@H](C)NC(=O)[C@H](C)NC(=O)[C@H](CC(=O)O)NC(=O)[C@H](CC(=O)O)NC1=O)NC(=O)[C@H](CC(C)(C)C)NC(=O)[C@H](CC(=O)O)NC2=O (stereo partly drawn)"
  discrete.label: "No"
- compound: "CC(=O)N1CCC[C@]12CC=CCCCC1(CCCC=CCCCOC(=O)N3CC[C@@](C(=O)N[C@@H](Cc4ccccc4Cl)C(=O)N[C@@H](Cc4csc5ccccc45)C(=O)N[C@@H](CCC(N)=O)C(=O)NCCCCCCN)(C3)NC(=O)[C@H](Cc3ccccc3)NC(=O)[C@H](Cc3ccccc3)NC(=O)[C@H](C)NC(=O)[C@H](C)NC(=O)[C@H](CN(CC(=O)O)CC(F)(F)F)NC(=O)[C@H](CC(=O)O)NC1=O)NC(=O)[C@H](CC(C)(C)C)NC(=O)[C@H](CC(=O)O)NC2=O (stereo partly drawn)"
  discrete.label: "No"
- compound: "CC(=O)N1CCC[C@]12CC=CCCCC1(CCCC=CCCCOC(=O)N3CC[C@@](C(=O)N[C@@H](Cc4ccsc4)C(=O)N[C@@H](Cc4csc5ccccc45)C(=O)N[C@@H](CCC(N)=O)C(N)=O)(C3)NC(=O)[C@H](Cn3cc(CN4CCOCC4)nn3)NC(=O)[C@H](Cc3ccccc3)NC(=O)[C@H](C)NC(=O)[C@H](C)NC(=O)[C@H](CN(CC(=O)O)CC(F)(F)F)NC(=O)[C@H](CC(=O)O)NC1=O)NC(=O)[C@H](CC(C)(C)C)NC(=O)[C@H](CC(=O)O)NC2=O (stereo partly drawn) [I-1866]"
  discrete.label: "No"
- compound: "CC(=O)N1CCC[C@]12CC=CCCCC1(CCCC=CCCCOC(=O)N3CC[C@@](C(=O)N[C@@H](Cc4ccsc4)C(=O)N[C@@H](Cc4csc5ccccc45)C(=O)N[C@H](CCC(N)=O)C(N)=O)(C3)NC(=O)[C@H](Cc3ccccc3)NC(=O)[C@H](Cc3ccccc3)NC(=O)[C@H](C)NC(=O)[C@H](C)NC(=O)[C@H](Cc3cccc(C(=O)O)c3)NC(=O)[C@H](CC(=O)O)NC1=O)NC(=O)[C@H](CC(C)(C)C)NC(=O)[C@H](CC(=O)O)NC2=O (stereo partly drawn)"
  discrete.label: "Yes"
- compound: "CC(=O)N1CCC[C@]12CC=CCCCC1(CCCC=CCCCOC(=O)N3CC[C@@](C(=O)N[C@@H](Cc4ccsc4)C(=O)N[C@@H](Cc4csc5ccccc45)C(=O)N[C@@H](CCC(N)=O)C(N)=O)(C3)NC(=O)[C@H](Cc3ccccc3)NC(=O)[C@H](Cc3ccccc3)NC(=O)[C@H](C)NC(=O)[C@H](C)NC(=O)[C@H](CC(=O)O)NC(=O)[C@H](CC(=O)O)NC1=O)NC(=O)[C@H](CC(C)(C)C)NC(=O)[C@H](CC(=O)O)NC2=O (stereo partly drawn)"
  discrete.label: "Yes"
- compound: "CC(=O)N1CCC[C@]12CC=CCCCC1(CCCC=CCCCOC(=O)N3CC[C@@](C(=O)N[C@@H](Cc4ccsc4)C(=O)N[C@@H](Cc4csc5ccccc45)C(=O)N[C@@H](CCC(N)=O)C(N)=O)(C3)NC(=O)[C@H](Cn3cc(CN4CCNCC4)nn3)NC(=O)[C@H](Cc3ccccc3)NC(=O)[C@H](C)NC(=O)[C@H](C)NC(=O)[C@H](CN(CC(=O)O)CC(F)(F)F)NC(=O)[C@H](CC(=O)O)NC1=O)NC(=O)[C@H](CC(C)(C)C)NC(=O)[C@H](CC(=O)O)NC2=O (stereo partly drawn)"
  discrete.label: "No"
